Where do these numbers come from? They come from ChEMBL document CHEMBL4699456.

METHOD_SUMMARY: Volume of distribution at steady state in BALB/c mouse at 2 mg/kg, iv
Type: ADME, organism-based
TEST_SETTINGS: in vivo, read-out: Vdss
ASSAY_READOUT: Vd (L/kg)
Dear colleague, please return just the value in L/kg, with no unit written.

CHEMICAL_SMILES	NUMERIC_RESULT
O=C(O)[C@H]1CC[C@H](C(=O)N2CC[C@](c3ccc(C(OCc4c(F)cccc4F)(C(F)(F)F)C(F)(F)F)cc3)(S(=O)(=O)c3ccc(F)cc3)C2)CC1	1.3

Continue with the next molecule.
stdin: Name the recorded Vd of the item "O=C(O)[C@H]1CC[C@H](C(=O)N2CC[C@](c3ccc(C(OCC4CCCCC4)(C(F)(F)F)C(F)(F)F)cc3)(S(=O)(=O)c3ccc(F)cc3)C2)CC1" in your answer.
stdout: 1.7
